method.notes: […] Kp, ratio of AUC in brain to plasma in wild type FVB mouse plasma at 10 mg/kg, ip
Format: ADME, organism-based
Set-up: dose 10 mg/kg, route intraperitoneal
experimental.context: brain and plasma
outcome.measure: Kp
Form: value (number only, do not type unit).

Noted for COc1cc2c(cc1OC)CN(CCc1ccc(NC(=O)c3cccc4c(=O)c5cccc(OC)c5[nH]c34)cc1)CC2 [ELACRIDAR] : its Kp reads 0.0784

###

method.notes: AUC (0 to last) in wild type FVB mouse brain at 2.5 mg/kg, iv
Format: ADME, organism-based
Parameters: time 0 - last, dose 2.5 mg/kg, route intravenous
outcome.measure: AUC(0-t) (ng·h/mL)
Express your answer in ng·h/mL, writing the number without its unit.

Query COc1cc2c(cc1OC)CN(CCc1ccc(NC(=O)c3cccc4c(=O)c5cccc(OC)c5[nH]c34)cc1)CC2 [ELACRIDAR] yields AUC(0-t) of 2140

###

method.notes: AUC (0 to infinity) in wild type FVB mouse plasma at 100 mg/kg, po
Assay type: ADME, organism-based
Set-up: time infinity, dose 100 mg/kg, route oral
outcome.measure: AUC(0-inf) (ng·h/mL)
Respond with the bare value in ng·h/mL.

// sample `COc1cc2c(cc1OC)CN(CCc1ccc(NC(=O)c3cccc4c(=O)c5cccc(OC)c5[nH]c34)cc1)CC2` , its AUC(0-inf) was 24300

###

method.notes: Cmax in wild type FVB mouse plasma at 100 mg/kg, po
Format: ADME, organism-based
Parameters: dose 100 mg/kg, route oral
outcome.measure: Cmax (ng/mL)
Numeric answer only, unit ng/mL assumed.

The reported Cmax of the compound `COc1cc2c(cc1OC)CN(CCc1ccc(NC(=O)c3cccc4c(=O)c5cccc(OC)c5[nH]c34)cc1)CC2` was 780

###

method.notes: Lipophilicity, logP of the compound
Format: physicochemical
experimental.context: octanol/water
outcome.measure: logP
Please state the value as a number alone, without comment.

So, `COc1cc2c(cc1OC)CN(CCc1ccc(NC(=O)c3cccc4c(=O)c5cccc(OC)c5[nH]c34)cc1)CC2` ? Its logP was 5.67

###

method.notes: Oral bioavailability in wild type FVB mouse at 100 mg/kg
Assay type: ADME, organism-based
experimental.context: plasma
outcome.measure: bioavailability (%)
Write the number in % without appending the unit.

bioavailability reported for this compound COc1cc2c(cc1OC)CN(CCc1ccc(NC(=O)c3cccc4c(=O)c5cccc(OC)c5[nH]c34)cc1)CC2 [ELACRIDAR] : 22

###

method.notes: AUC (0 to last) in wild type FVB mouse plasma at 100 mg/kg, po
Type: ADME, organism-based
Design: time 0 - last, dose 100 mg/kg, route oral
outcome.measure: AUC(0-t) (ng·h/mL)
// note: answer is a bare numeric in ng·h/mL

Summary for this compound, `COc1cc2c(cc1OC)CN(CCc1ccc(NC(=O)c3cccc4c(=O)c5cccc(OC)c5[nH]c34)cc1)CC2` : AUC(0-t) is 13200

###

method.notes: Ratio of AUC in brain to plasma in wild type FVB mouse plasma at 2.5 mg/kg, iv
Format: ADME, organism-based
Set-up: dose 2.5 mg/kg, route intravenous
experimental.context: brain and plasma
outcome.measure: Kp

Kp in this record for `COc1cc2c(cc1OC)CN(CCc1ccc(NC(=O)c3cccc4c(=O)c5cccc(OC)c5[nH]c34)cc1)CC2` : 0.82

###

method.notes: AUC (0 to infinity) in wild type FVB mouse brain at 2.5 mg/kg, iv
Format: ADME, organism-based
Parameters: time infinity, dose 2.5 mg/kg, route intravenous
outcome.measure: AUC(0-inf) (ng·h/mL)
Give the number; ng·h/mL is assumed, so skip it.

The compound identified as `COc1cc2c(cc1OC)CN(CCc1ccc(NC(=O)c3cccc4c(=O)c5cccc(OC)c5[nH]c34)cc1)CC2` registered its AUC(0-inf) at 2190

###

method.notes: AUC (0 to infinity) in wild type FVB mouse brain at 100 mg/kg, ip
Format: ADME, organism-based
Set-up: dose 100 mg/kg, route intraperitoneal, time infinity
outcome.measure: AUC(0-inf) (µg·h/mL)
State just the number; it will be interpreted in µg·h/mL.

For `COc1cc2c(cc1OC)CN(CCc1ccc(NC(=O)c3cccc4c(=O)c5cccc(OC)c5[nH]c34)cc1)CC2` the compound record lists AUC(0-inf) as 0.725

###

method.notes: Terminal half life in wild type FVB mouse plasma at 2.5 mg/kg, iv
Format: ADME, organism-based
Design: dose 2.5 mg/kg, route intravenous
experimental.context: read-out: beta t1/2 (converted)
outcome.measure: half-life

The recorded half-life for entry COc1cc2c(cc1OC)CN(CCc1ccc(NC(=O)c3cccc4c(=O)c5cccc(OC)c5[nH]c34)cc1)CC2 [ELACRIDAR] equals 4.4 h
